Tested on: NCI-H226 lung
EXPERIMENTAL PROTOCOL: NCI-60 one-dose screen, 48 h (100 = growth as untreated, 0 = no growth, -100 = all killed)
DETAILS: 10 µM unless noted
This is part of a sample that, as a whole, favours compounds with a hit. Of some 83,000 tested, about 20% had one in any assay. Active and inactive are the calls of the source. Rule for the calls: active = growth percent below 10; inactive = the rest.
ATTRIBUTE MEASURED: growth

chemical_string=O=C1/C(=C/C=C/c2ccco2)SC(=S)N1C1CCCCC1 measured_result="105% (inactive)"

[Q] Looking for the measured growth of COc1ccc(-c2nc3cccc(O)c3c(=O)n2Cc2ccccc2)cc1COc1ccc(NC(C)=O)cc1 , can you help?
[A] 56.2% [3 µM] (inactive)

[Q] Looking for the measured growth of Cc1cc2nc(C(Cl)Cl)nc(-c3cccs3)n2n1 , can you help?
[A] 86.7% (inactive)

[Q] Looking for the measured growth of N#Cc1cccc(CN2CCc3ncn(Cc4ccc(Cl)cc4)c(=O)c3C2)c1 , can you help?
[A] 30.4% (inactive)

[Q] Looking for the measured growth of COc1cc(/C=C2\C(=O)Nc3cc(Cl)ccc32)ccc1OCc1ccc(F)cc1 , can you help?
[A] 91.2% (inactive)
